Data origin: paper PMC4535766

Tested on: T. cruzi, strain Tulahuen C4, intracellular amastigotes
assay.text: in vitro
condition.label: rat, Selectivity index: IC50 Cytotoxicity L6/ IC50 T. cruzi
endpoint: selectivity ratio

INSERT INTO assay_data (molecule, relation_operator, reported) VALUES
  ('O=C1CN(/N=C/c2ccc([N+](=O)[O-])o2)C(=O)N1', '=', 21),
  ('O=C(N/N=C/c1ccc([N+](=O)[O-])o1)c1ccc(O)cc1 [Nifuroxazide]', '=', 54),
  ('CCN(CCCCOC(=O)c1ccc(OC)c(OC)c1)C(C)Cc1ccc(OC)cc1 (stereo not drawn)', '=', 18),
  ('OC(Cn1cncn1)(Cn1cncn1)c1ccc(F)cc1F', '>', 30),
  ('CC1CS(=O)(=O)CCN1/N=C/c1ccc([N+](=O)[O-])o1 (stereo not drawn)', '=', 458),
  ('CN1CC(=O)N2[C@H](c3ccc4c(c3)OCO4)c3[nH]c4ccccc4c3C[C@@H]2C1=O', '>', 26);
